# system: KSP (Homo sapiens)
# assay.protocol: KSP inhibitory activity, end-point assay
# Assay type: biochemical
# reported.conditions: KSP inhibitory activity based on end-point assay; read-out: IC50 Rating
pIC50: −log10 of the molar value.
value.type: pIC50

[[record]]
compound = "C[C@H](CO)NC(=O)c1c[nH]c2cc3c(nc12)CCC(C(C)(C)C)C3 (stereo partly drawn) [Example 77]"
test_value = "< 5.00"

[[record]]
compound = "CC(C)(C)C1CCc2nc3c(C(=O)Nc4ncccn4)c[nH]c3cc2C1 (stereo not drawn) [Example 94]"
test_value = "< 5.00"

[[record]]
compound = "CNC(=O)c1cc2nc3c(cc2[nH]1)C[C@H](C(C)(C)C)CC3 (single isomer, unassigned) [Example 22A]"
test_value = "> 7.00"

[[record]]
compound = "CC(C)(C)C1CCc2nc3c(NS(C)(=O)=O)c(C(N)=O)[nH]c3cc2C1 (stereo not drawn) [Example 68]"
test_value = "5.00 to 6.00"

[[record]]
compound = "COCCOCc1cc2nc3c(cc2[nH]1)CC(C(C)(C)C)CC3 (stereo not drawn) [Example 86]"
test_value = "6.00 to 7.00"

[[record]]
compound = "CC(C)(C)C1CCc2nc3cc(C(=O)NCCCCO)[nH]c3cc2C1 (stereo not drawn) [Example 13]"
test_value = "5.00 to 6.00"

[[record]]
compound = "CNNC(=O)c1cc2nc3c(cc2[nH]1)CC(C(C)(C)C)CC3 (stereo not drawn) [Example 100]"
test_value = "< 5.00"

[[record]]
compound = "CCOC(=O)c1[nH]c2cc3c(nc2c1NCCCO)CCC(C(C)(C)C)C3 (stereo not drawn) [Example 67]"
test_value = "< 5.00"

[[record]]
compound = "CC(C)(C)C1CCc2nc3c(Br)c(C(N)=O)[nH]c3cc2C1 (stereo not drawn) [Example 35]"
test_value = "< 5.00"


====

# system: KSP (Homo sapiens)
# Sequence (P52732 1-1056): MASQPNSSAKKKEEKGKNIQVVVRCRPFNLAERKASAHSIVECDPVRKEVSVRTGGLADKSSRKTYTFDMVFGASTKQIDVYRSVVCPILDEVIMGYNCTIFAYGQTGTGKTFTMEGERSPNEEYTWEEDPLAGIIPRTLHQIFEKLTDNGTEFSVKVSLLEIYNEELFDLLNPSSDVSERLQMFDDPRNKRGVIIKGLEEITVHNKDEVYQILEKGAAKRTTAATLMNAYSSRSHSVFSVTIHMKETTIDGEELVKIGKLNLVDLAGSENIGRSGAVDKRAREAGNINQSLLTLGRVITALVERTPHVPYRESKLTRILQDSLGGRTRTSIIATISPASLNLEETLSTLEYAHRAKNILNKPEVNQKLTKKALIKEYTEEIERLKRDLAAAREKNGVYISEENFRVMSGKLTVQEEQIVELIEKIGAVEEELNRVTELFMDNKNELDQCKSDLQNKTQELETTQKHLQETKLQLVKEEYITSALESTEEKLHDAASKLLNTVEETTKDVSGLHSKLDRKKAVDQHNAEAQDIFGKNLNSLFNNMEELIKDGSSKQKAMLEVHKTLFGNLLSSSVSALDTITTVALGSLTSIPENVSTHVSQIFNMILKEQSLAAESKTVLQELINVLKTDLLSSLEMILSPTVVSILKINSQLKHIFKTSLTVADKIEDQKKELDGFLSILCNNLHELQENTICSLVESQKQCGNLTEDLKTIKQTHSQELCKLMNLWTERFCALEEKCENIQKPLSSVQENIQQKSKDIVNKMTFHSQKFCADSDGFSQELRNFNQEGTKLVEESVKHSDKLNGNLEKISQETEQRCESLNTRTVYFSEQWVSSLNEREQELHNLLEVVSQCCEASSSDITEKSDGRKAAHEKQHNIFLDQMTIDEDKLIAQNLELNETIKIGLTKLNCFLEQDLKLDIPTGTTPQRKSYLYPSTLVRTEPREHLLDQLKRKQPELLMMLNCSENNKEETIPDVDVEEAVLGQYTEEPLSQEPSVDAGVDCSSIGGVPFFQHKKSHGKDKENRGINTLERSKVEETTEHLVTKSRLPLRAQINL
# assay.protocol: KSP inhibitory activity, end-point assay
# Type: biochemical
# reported.conditions: KSP inhibitory activity based on end-point assay; read-out: IC50 Rating
value.type: IC50

[[record]]
molecule = "COc1cccc(-c2c(C(N)=O)[nH]c3cc4c(nc23)CCC(C(C)(C)C)C4)c1 (stereo not shown) [Example 116]"
value_type = "IC50"
test_value = "> 10 µM"

[[record]]
molecule = "C=CCNC(=O)c1c[nH]c2cc3c(nc12)CCC(C(C)(C)C)C3 (stereo not shown) [Example 78]"
value_type = "IC50"
test_value = "> 10 µM"

[[record]]
molecule = "CCOC(=O)c1[nH]c2cc3c(nc2c1CC(O)CO)CCC(C(C)(C)C)C3 (stereo not shown) [Example 54]"
value_type = "IC50"
test_value = "> 10 µM"

[[record]]
molecule = "CC(C)(C)C1CCc2nc3cc[nH]c3cc2C1 (stereo not shown) [Example 83]"
value_type = "IC50"
test_value = "< 0.1 µM"

[[record]]
molecule = "COC(=O)c1c[nH]c2cc3c(nc12)CCC(C(C)(C)C)C3 (stereo not shown) [Example 71]"
value_type = "IC50"
test_value = "> 10 µM"

[[record]]
molecule = "CC(C)(C)C1CCc2nc3cc(C(=O)Nc4ccc(CCO)cc4)[nH]c3cc2C1 (stereo not shown) [Example 105]"
value_type = "IC50"
test_value = "1 to 10 µM"

[[record]]
molecule = "CC(C)(C)C1CCc2nc3c(C(=O)NCCN4CCNCC4)c[nH]c3cc2C1 (stereo not shown) [Example 74]"
value_type = "IC50"
test_value = "> 10 µM"


====

# system: KSP (Homo sapiens, UniProt P52732)
# assay.protocol: KSP inhibitory activity, end-point assay
# Format: biochemical
# reported.conditions: KSP inhibitory activity based on end-point assay; read-out: IC50 Rating
value.type: IC50

[[record]]
compound = "CC(C)(C)C1CCc2nc3c(CC(O)CO)c(C(N)=O)[nH]c3cc2C1 (centres unmarked)"
system = "KSP (Homo sapiens, UniProt P52732)"
value_type = "IC50"
test_value = "> 10000 nM"

[[record]]
compound = "Cc1cc(C)n(C(=O)c2c[nH]c3cc4c(nc23)CCC(C(C)(C)C)C4)n1 (centres unmarked)"
system = "KSP (Homo sapiens, UniProt P52732)"
value_type = "IC50"
test_value = "> 10000 nM"

[[record]]
compound = "C=CCC(O)c1cc2nc3c(cc2[nH]1)CC(C(C)(C)C)CC3 (centres unmarked)"
system = "KSP (Homo sapiens, UniProt P52732)"
value_type = "IC50"
test_value = "100 to 1000 nM"

[[record]]
compound = "CCNC(=O)c1cc2nc3c(cc2[nH]1)CC(C(C)(C)C)CC3 (centres unmarked)"
system = "KSP (Homo sapiens, UniProt P52732)"
value_type = "IC50"
test_value = "100 to 1000 nM"

[[record]]
compound = "CC(C)(C)C1CCc2nc3c(CCC(N)=O)c(C(N)=O)[nH]c3cc2C1 (centres unmarked)"
system = "KSP (Homo sapiens, UniProt P52732)"
value_type = "IC50"
test_value = "1000 to 10000 nM"

[[record]]
compound = "CC(C)(C)C1CCc2nc3cc(C(=O)NCCCCN)[nH]c3cc2C1 (centres unmarked)"
system = "KSP (Homo sapiens, UniProt P52732)"
value_type = "IC50"
test_value = "100 to 1000 nM"

[[record]]
compound = "CCc1c(C(N)=O)[nH]c2cc3c(nc12)CCC(C(C)(C)C)C3 (centres unmarked)"
system = "KSP (Homo sapiens, UniProt P52732)"
value_type = "IC50"
test_value = "1000 to 10000 nM"

[[record]]
compound = "C=Cc1cc2nc3c(cc2[nH]1)CC(C(C)(C)C)CC3 (centres unmarked)"
system = "KSP (Homo sapiens, UniProt P52732)"
value_type = "IC50"
test_value = "1000 to 10000 nM"


====

# system: KSP (Homo sapiens)
# assay.protocol: KSP inhibitory activity, end-point assay
# Type: biochemical
# reported.conditions: KSP inhibitory activity based on end-point assay; read-out: IC50 Rating
pIC50: −log10 of the molar value.
value.type: pIC50

[[record]]
compound = "CC(C)(C)[C@@H]1CCc2nc3cc(C(N)=O)[nH]c3cc2C1 (single isomer, unassigned) [Example 21A]"
system = "KSP (Homo sapiens)"
value_type = "pIC50"
test_value = "> 7.00"

[[record]]
compound = "CC(C)(C)C1CCc2nc3c(C(=O)NN)c[nH]c3cc2C1 (stereo not drawn)"
system = "KSP (Homo sapiens)"
value_type = "pIC50"
test_value = "6.00 to 7.00"

[[record]]
compound = "CC(C)(C)C1CCc2nc3cc(C(N)=O)[nH]c3cc2C1 (stereo not drawn)"
system = "KSP (Homo sapiens)"
value_type = "pIC50"
test_value = "> 7.00"

